experiment: in vivo; conditions: female, BALB/c, mouse, po, 1000 mg/kg, AUC0-24 hr
metric: AUC(0-t)
Form field: result (number plus unit)

Please give measured AUC(0-t) of the following entry: O=C(NN1C(=O)C2C3C=CC(C4CC34)C2C1=O)c1ccc(C(F)(F)F)cc1 (stereo not shown) [ST-246] 852 µg·h/mL

----------
assay: in vivo; conditions: both, New Zealand White, rabbit, iv, elimination half-lives
metric: half-life

Please give measured half-life of the following entry: O=C(NN1C(=O)C2C3C=CC(C4CC34)C2C1=O)c1ccc(C(F)(F)F)cc1 (stereo not shown) [ST-246] 1 to 12.2 h

----------
test: in vivo; settings: female, BALB/c, mouse, iv, 3 mg/kg, Cmax
metric: Cmax
Form field: result (number plus unit)

Please give measured Cmax of the following entry: O=C(NN1C(=O)C2C3C=CC(C4CC34)C2C1=O)c1ccc(C(F)(F)F)cc1 (stereo not shown) 78.4 µg/mL
